Each recorded value in this set is attributed to PubChem BioAssay AID1851.

molecular target: Cytochrome P450 1A2 (Homo sapiens) (UniProt P05177); experiment: Cytochrome panel assay with activity outcomes; details: recombinant CYP, pro-luciferin dealkylation, luminescence, p450-cyp1a2; series mostly up to 57.1 µM
Sequence (P05177 whole entry, looked up): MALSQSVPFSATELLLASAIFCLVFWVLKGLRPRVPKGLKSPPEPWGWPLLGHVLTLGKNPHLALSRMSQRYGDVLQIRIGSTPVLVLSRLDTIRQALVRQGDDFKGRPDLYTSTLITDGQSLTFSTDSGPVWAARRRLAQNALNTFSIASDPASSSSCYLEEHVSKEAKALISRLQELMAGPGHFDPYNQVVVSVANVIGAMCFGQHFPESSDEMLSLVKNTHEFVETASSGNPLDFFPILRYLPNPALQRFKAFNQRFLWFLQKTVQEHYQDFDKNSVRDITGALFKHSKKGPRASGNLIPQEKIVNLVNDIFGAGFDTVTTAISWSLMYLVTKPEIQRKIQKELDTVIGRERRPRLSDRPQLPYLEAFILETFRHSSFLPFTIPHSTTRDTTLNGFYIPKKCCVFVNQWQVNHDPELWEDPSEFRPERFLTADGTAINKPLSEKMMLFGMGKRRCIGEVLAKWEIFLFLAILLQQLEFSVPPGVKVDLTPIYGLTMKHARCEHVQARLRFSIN
Among all 16,000 compounds or so, about 5,700 (36%) were called active. About 24% were inconclusive and are not listed. Calls follow the shape of the dose curve; as a rule, active = well fitted curve in the direction sought with a large enough effect; inconclusive = small, poorly fitted or top-dose-only effect, or effect the other way; inactive = no such curve, though single readings can be large or run the other way. The list shows a part of the results.
Select the matching outcome among active, inactive

Query: recorded result category for "O=C(O)c1cc(S(=O)(=O)N2CCCCC2)ccc1F" in this test inactive

Query: recorded result category for O=C(O)NCc1ccccc1 (tested in a mixture with another compound) in this test active

Query: recorded result category for "O=C(NCc1ccc(F)cc1)C1CCN(S(=O)(=O)N2CCCCC2)CC1" in this test inactive

Query: recorded result category for "Cc1cc(NCCO)c2ccccc2n1" in this test inactive

* * *

Answer each item with its documented activity, negative = inhibition.
biological target: Cytochrome P450 1A2 (Homo sapiens) (UniProt P05177); experiment: Cytochrome panel assay with activity outcomes; details: recombinant CYP, pro-luciferin dealkylation, luminescence, p450-cyp1a2; series mostly up to 57.1 µM; as to activity, negative = inhibition: % is scaled to controls: 0 for no effect and ±100 for the full control effect
About 5,700 (36%) of roughly 16,000 compounds were called active. Not shown: some 24% with an inconclusive outcome. This is one part of the list.

Would you kindly share the measured activity, negative = inhibition for "CC(C)c1cc(C(F)(F)F)nc(NNc2nc(C(C)C)cc(C(F)(F)F)n2)n1" ? -41.5% [at 11.4 µM] (inactive)

Would you kindly share the measured activity, negative = inhibition for "N[C@@H](Cc1ccnnc1)C(=O)O" ? -10.6% [at 2.29 µM] (inactive)

Would you kindly share the measured activity, negative = inhibition for "Oc1c(Br)cc(CN(Cc2cc(Br)c(O)c(Br)c2)C2CCCCC2)cc1Br" ? -5.68% [at 2.29 µM] (inactive)

* * *

target: Cytochrome P450 1A2 (Homo sapiens) (UniProt P05177); assay: Cytochrome panel assay with activity outcomes; settings: recombinant CYP, pro-luciferin dealkylation, luminescence, p450-cyp1a2; series mostly up to 57.1 µM
The campaign covered roughly 16,000 compounds. About 5,700 (36%) were called active. Not shown: some 24% with an inconclusive outcome. Calls come from the whole dose curve; as a rule, active = well fitted curve in the direction sought with a large enough effect; inconclusive = small, poorly fitted or top-dose-only effect, or effect the other way; inactive = no such curve, though single readings can be large or run the other way. This is one part of the list.
Select the matching outcome among active, inactive

Query: recorded result category for "O=C(CNC(=O)/C(=C\c1ccccc1)NC(=O)c1ccc(Br)cc1)OCc1ccccc1" in this test inactive

Query: recorded result category for "C[C@H](N[C@@H](C)COc1ccccc1)[C@H](O)c1ccc(O)cc1" in this test active

Query: recorded result category for "CS(=O)(=O)Nc1cccc(-c2nc(Nc3ccccc3)c3ccccc3n2)c1" in this test active

Query: recorded result category for COC(=O)N1CC(=O)N(OC)C1c1ccc(Cl)cc1Cl (centres undefined) in this test inactive

Query: recorded result category for "O=S(=O)(Nc1ccc(Cc2ccncc2)cc1)c1cccs1" in this test active

Query: recorded result category for Cc1cccc(NC(=O)C23CCC(C)(C2Br)C3(C)C)c1 (centres undefined) in this test active

Query: recorded result category for "Nc1cc(=O)[nH]c(SCC(=O)Nc2ccc(S(=O)(=O)N3CCOCC3)cc2)n1" in this test inactive

Query: recorded result category for "Cc1cc(=O)[nH]c(-n2[nH]c3c(c2=O)CCCC3)n1" in this test inactive

Query: recorded result category for "COc1ccc(C(=O)NCC(=O)OCc2cccc(Br)c2)cc1" in this test active

Query: recorded result category for "C[C@@](N)(Cc1ccc(O)cc1)C(=O)O" in this test inactive

Query: recorded result category for CC(=O)OC1COC(N2CCc3cc([N+](=O)[O-])ccc32)C(OC(C)=O)C1OC(C)=O (centres undefined) in this test inactive

Query: recorded result category for "Cc1cc(=O)[nH]c(SCC(=O)Nc2nc3c(s2)CCCC3)n1" in this test active

Query: recorded result category for "C[C@@](N)(Cc1ccc(O)c(O)c1)C(=O)O" in this test inactive

Query: recorded result category for "CNc1nc(-c2cccc(NS(C)(=O)=O)c2)nc2ccccc12" in this test active

* * *

target: Cytochrome P450 1A2 (Homo sapiens) (UniProt P05177); assay: Cytochrome panel assay with activity outcomes; settings: recombinant CYP, pro-luciferin dealkylation, luminescence, p450-cyp1a2; series mostly up to 57.1 µM
The campaign covered roughly 16,000 compounds. About 5,700 (36%) were called active. Roughly 24% stayed inconclusive and do not appear here. The list shows a part of the results.
quantity name: AC50

CN(Cc1ccco1)c1ncnc2ccc(-c3ccccc3Cl)cc12: 2000 nM (active)
CN(Cc1ccco1)c1ncnc2ccc(-c3ccccc3C(F)(F)F)cc12: 5010 nM (active)
CCCCCC/C(C)=C1/SC(=S)NC1=O: 2510 nM (active)
O=C(c1cc(C(F)(F)F)cc(C(F)(F)F)c1)N1CCC2(CCN(Cc3nccs3)CC2)CC1: inactive
CCOC(=O)c1oc2ccccc2c1NC(=O)c1cc(OC)cc(OC)c1: 794 nM (active)

Continue with the compound presented below.
Would you kindly share the measured AC50 for "CN(Cc1ccco1)c1ncnc2ccc(-c3cccc(C#N)c3)cc12" ? 501 nM (active)

* * *

Answer each item with its documented activity, negative = inhibition.
target: Cytochrome P450 1A2 (Homo sapiens) (UniProt P05177); experiment: Cytochrome panel assay with activity outcomes; conditions: recombinant CYP, pro-luciferin dealkylation, luminescence, p450-cyp1a2; series mostly up to 57.1 µM; as to activity, negative = inhibition: % is scaled to controls: 0 for no effect and ±100 for the full control effect
Hit rate of the full screen: of about 16,000 compounds, about 5,700 (36%) were called active. About 24% were inconclusive and are not listed. The list shows a part of the results.

Would you kindly share the measured activity, negative = inhibition for "CCc1cc2c(nc1CC)CCN(CC/C(C)=N/OC[C@@H](O)[C@@H]1O[C@@H]3OC(C)(C)O[C@@H]3[C@H]1O)C2" ? -14.1% [at 11.4 µM] (inactive)

Would you kindly share the measured activity, negative = inhibition for "O=C1[C@H]2[C@H]3[C@H](O)[C@H](O)C/C(=N/OC[C@@H](O)COCc4ccco4)[C@@H]3CC[C@@H]2C(=O)N1Cc1ccc2c(c1)OCO2" ? -3.61% [at 11.4 µM] (inactive)

Would you kindly share the measured activity, negative = inhibition for "O=C(O)c1cc2ccccc2c(S(=O)(=O)O)c1O" ? 6.64% [at 11.4 µM] (inactive)

* * *

molecular target: Cytochrome P450 1A2 (Homo sapiens) (UniProt P05177); assay: Cytochrome panel assay with activity outcomes; details: recombinant CYP, pro-luciferin dealkylation, luminescence, p450-cyp1a2; series mostly up to 57.1 µM; as to activity, negative = inhibition: % is scaled to controls: 0 for no effect and ±100 for the full control effect
The campaign covered roughly 16,000 compounds. About 5,700 (36%) were called active. Roughly 24% stayed inconclusive and do not appear here. This is one part of the list.
Answer each item with its documented activity, negative = inhibition.

Would you kindly share the measured activity, negative = inhibition for "CC(C)=CCC/C(C)=C/CO/N=C1/C[C@@H](O)[C@@H](O)[C@@H]2[C@@H]3C(=O)N(Cc4ccc5c(c4)OCO5)C(=O)[C@H]3CC[C@@H]12" ? -3.81% [at 11.4 µM] (inactive)

Would you kindly share the measured activity, negative = inhibition for "COC(=O)C/C=C\[C@@H](C)[C@@H](/C=N\OC[C@@H](O)[C@H]1O[C@H]2OC(C)(C)O[C@H]2[C@@H]1O)NS(=O)(=O)c1ccc(C)cc1" ? 0.282% [at 11.4 µM] (inactive)

Would you kindly share the measured activity, negative = inhibition for "O=C(O)c1cc(N=Cc2ccccc2O)cc(C(=O)O)c1" ? -12.6% [at 11.4 µM] (inactive)

Would you kindly share the measured activity, negative = inhibition for "CCN=C(N)CSS(=O)(=O)O" ? -10.1% [at 11.4 µM] (inactive)

Would you kindly share the measured activity, negative = inhibition for "Cc1c(Cl)cccc1NC(=O)C[C@H]1Sc2ccccc2NC1=O" ? -23.2% [at 2.29 µM] (inactive)

Would you kindly share the measured activity, negative = inhibition for "C/C(CCN1CCCCc2nc(C)c(C)cc21)=N\OC[C@@H](C)[C@H](OCc1ccccc1)C(C)C" ? -4.06% [at 11.4 µM] (inactive)

* * *

Target: Cytochrome P450 1A2 (Homo sapiens)
Experiment: Cytochrome panel assay with activity outcomes
Conditions: recombinant CYP, pro-luciferin dealkylation, luminescence, p450-cyp1a2; series mostly up to 57.1 µM
Method: The P450 gene superfamily is involved in the metabolism and clearance of xenobiotics. This assay used various human CYP P450 isozymes to measure the dealkylation of various pro-luciferin substrates to luciferin. The luciferin is then measured by luminescence after the addition of a luciferase detection reagent. […] Inhibitors and some substrates limit the production of luciferin, and decrease measured luminescence. […] 8, Detection, 1 sec, ViewLux luminescent read […]
About 5,700 (36%) of roughly 16,000 compounds were called active. Inconclusive results (about 24%) are left out. Calls follow the shape of the dose curve; as a rule, active = well fitted curve in the direction sought with a large enough effect; inconclusive = small, poorly fitted or top-dose-only effect, or effect the other way; inactive = no such curve, though single readings can be large or run the other way. The list shows a part of the results. Numbered stars: 1 amine (or outer) side, 2 acyl side, 3 side chain; on linkers, the order of the positions; unused ones are H or OH. Bridge positions count the residues as written; N and C are the ends. Square brackets hold non-standard residues; d marks the D form. Peptide text beside a SMILES is read from it. I, II: the chains in the order shown. Actinocin(9to1) = Cc1c2oc3c(C)ccc(C(=O)[*:1])c3nc-2c(C(=O)[*:2])c(N)c1=O; aThr = C[C@H](O)[C@H](N)C(=O)O; NMeV = CN[C@H](C(=O)O)C(C)C; Sar = CNCC(=O)O
Select the matching outcome among 1 (yes) for active, 0 (no) for inactive

Query: recorded result category for Cc1ccccc1NC1=NC(=S)N(c2ccccc2)C12CCOC(C)(C)C2 (stereo not given) in this test 0 (no)

Query: recorded result category for Cc1c2oc3c(C)ccc(C(=O)N[C@@H]4C(=O)N[C@@H](C(C)C)C(=O)N5CCC[C@@H]5C(=O)N(C)CC(=O)N(C)[C@@H](C(C)C)C(=O)O[C@H]4C)c3nc-2c(C(=O)N[C@@H]2C(=O)N[C@@H](C(C)C)C(=O)N3CCC[C@@H]3C(=O)N(C)CC(=O)N(C)[C@@H](C(C)C)C(=O)O[C@H]2C)c(N)c1=O (I: [aThr]V[dP][Sar][NMeV] / II: [aThr]V[dP][Sar][NMeV]; ester I:1-I:C, II:1-II:C; linker I:N-II:N via Actinocin(9to1)) in this test 0 (no)

Query: recorded result category for "O=C(Nc1ccccc1)OCc1cc(-c2ccc(Cl)cc2)on1" in this test 1 (yes)

Query: recorded result category for "CN1CCN(c2ncc3nc(-c4ccc(Cl)cc4)c(=O)n(C4CC4)c3n2)CC1" in this test 1 (yes)

Query: recorded result category for "CCOC(=O)[C@H](N)/C=C(\C)CP(=O)(O)O" in this test 0 (no)

Query: recorded result category for Fc1ccc2c(c1)C1C=CCC1C(c1cc3c(cc1Br)OCO3)N2 (stereo not given) in this test 1 (yes)

Query: recorded result category for "CN1CCN(c2ncc3nc(-c4ccc(F)cc4)c(=O)n(C4CC4)c3n2)CC1" in this test 1 (yes)

Query: recorded result category for "CCN(CC)CCn1c(=S)[nH]c2cc3c(cc2c1=O)OCO3" in this test 1 (yes)

Query: recorded result category for "Nc1ccc(S(=O)(=O)NC(=O)c2ccccc2)cc1" in this test 0 (no)

Query: recorded result category for "CCOC(=O)Nc1ccc2c(c1)OCO2" in this test 1 (yes)
